- measurement_conditions: in n-butyl acetate, 328.15 K
measured_property: solubility (mole fraction)
Form rule: numeric answer, no unit written next to it.

Output solubility (mole fraction) of CCC(CO)(CO)C(=O)O
0.0379

====

- measurement_conditions: in MIBK, 348.15 K
measured_property: solubility (mole fraction)
Give the figure only, with no unit attached.

Give a short answer stating reported solubility (mole fraction) for CCC(CO)(CO)C(=O)O .
0.132

====

- measurement_conditions: in MIBK, 350.15 K
measured_property: solubility (mole fraction)
Form field (numeric): enter value without unit.

Determine from records and report solubility (mole fraction) for CCC(CO)(CO)C(=O)O
0.156

====

- measurement_conditions: in cyclopentyl methyl ether, 353.15 K
measured_property: solubility (mole fraction)
Give only the figure.

Return solubility (mole fraction) for the following compound: CCC(CO)(CO)C(=O)O
0.133

====

- measurement_conditions: in cyclopentyl methyl ether, 333.15 K
measured_property: solubility (mole fraction)
Write the number on its own, no unit after it.

Entry CCC(CO)(CO)C(=O)O needs its solubility (mole fraction) filled in; supply it.
0.0425

====

- measurement_conditions: in MIBK, 333.15 K
measured_property: solubility (mole fraction)
Just the number, please.

Give solubility (mole fraction) for CCC(CO)(CO)C(=O)O
0.077

====

- measurement_conditions: in 1,4-dioxane, 308.15 K
measured_property: solubility (mole fraction)
Answer with a bare number; do not write a unit.

Identify measured solubility (mole fraction) corresponding to CCC(CO)(CO)C(=O)O
0.176

====

- measurement_conditions: in n-butyl acetate, 350.15 K
measured_property: solubility (mole fraction)
Answer with the value's number alone.

Input CCC(CO)(CO)C(=O)O , output reported solubility (mole fraction).
0.132

====

- measurement_conditions: in n-butyl acetate, 333.15 K
measured_property: solubility (mole fraction)

Please look at this compound and report its solubility (mole fraction): CCC(CO)(CO)C(=O)O
0.0477

====

- measurement_conditions: in n-butyl acetate, 348.15 K
measured_property: solubility (mole fraction)
Give a plain numeric answer without units written out.

Report measured solubility (mole fraction); entry is CCC(CO)(CO)C(=O)O
0.111

====

- measurement_conditions: in ethyl acetate, 318.15 K
measured_property: solubility (mole fraction)

Please look at this compound and report its solubility (mole fraction): CCC(CO)(CO)C(=O)O
0.0338

====

- measurement_conditions: in cyclopentyl methyl ether, 313.15 K
measured_property: solubility (mole fraction)

State its solubility (mole fraction): CCC(CO)(CO)C(=O)O
0.0208

====

- measurement_conditions: in n-butyl acetate, 343.15 K
measured_property: solubility (mole fraction)
# respond with the number and nothing more

Give the measured solubility (mole fraction) for CCC(CO)(CO)C(=O)O
0.0768

====

- measurement_conditions: in ethyl acetate, 308.15 K
measured_property: solubility (mole fraction)

Fill in solubility (mole fraction) for record CCC(CO)(CO)C(=O)O
0.0228

====

- measurement_conditions: in MIBK, 328.15 K
measured_property: solubility (mole fraction)
# output: bare number, no unit

Give the reported value of solubility (mole fraction) for this record: CCC(CO)(CO)C(=O)O
0.07

====

- measurement_conditions: in MIBK, 308.15 K
measured_property: solubility (mole fraction)

Identify the reported solubility (mole fraction) for the following entry. CCC(CO)(CO)C(=O)O
0.0362

====

- measurement_conditions: in gamma-butyrolactone, 308.15 K
measured_property: solubility (mole fraction)
Response field accepts a number only; no unit should be typed.

Tell me solubility (mole fraction) reported for CCC(CO)(CO)C(=O)O
0.105

====

- measurement_conditions: in toluene, 323.15 K
measured_property: solubility (mole fraction)
No unit in the answer, only the number.

Indicate the recorded solubility (mole fraction) value for this compound: CCC(CO)(CO)C(=O)O
0.00093

====

- measurement_conditions: in 1,4-dioxane, 303.15 K
measured_property: solubility (mole fraction)
Write the number on its own, no unit after it.

Output solubility (mole fraction) of CCC(CO)(CO)C(=O)O
0.153

====

- measurement_conditions: in toluene, 338.15 K
measured_property: solubility (mole fraction)

Name the recorded solubility (mole fraction) of the item CCC(CO)(CO)C(=O)O in your answer.
0.00105

====

- measurement_conditions: in MIBK, 303.15 K
measured_property: solubility (mole fraction)
Kindly provide the number alone.

Indicate its recorded solubility (mole fraction); the molecule in question is CCC(CO)(CO)C(=O)O
0.0297

====

- measurement_conditions: in n-butyl acetate, 318.15 K
measured_property: solubility (mole fraction)
Form rule: numeric answer, no unit written next to it.

Write down solubility (mole fraction) measured for item CCC(CO)(CO)C(=O)O
0.0228

====

- measurement_conditions: in cyclopentyl methyl ether, 345.15 K
measured_property: solubility (mole fraction)

Answer with the recorded solubility (mole fraction) for the compound listed here: CCC(CO)(CO)C(=O)O
0.0749

====

- measurement_conditions: in ethyl acetate, 328.15 K
measured_property: solubility (mole fraction)
// response body must contain only the number

Tell me its solubility (mole fraction) given CCC(CO)(CO)C(=O)O as the entry.
0.0539

====

- measurement_conditions: in cyclopentyl methyl ether, 303.15 K
measured_property: solubility (mole fraction)
# answer = number (no unit)

Report solubility (mole fraction) for CCC(CO)(CO)C(=O)O
0.013

====

- measurement_conditions: in toluene, 298.15 K
measured_property: solubility (mole fraction)
Write the number on its own, no unit after it.

Tell me measured solubility (mole fraction) for CCC(CO)(CO)C(=O)O please.
0.00039

====

- measurement_conditions: in ethyl acetate, 333.15 K
measured_property: solubility (mole fraction)
Answer as a number with no unit attached.

Kindly indicate its recorded solubility (mole fraction). Item: CCC(CO)(CO)C(=O)O
0.0612

====

- measurement_conditions: in MIBK, 318.15 K
measured_property: solubility (mole fraction)
Please respond with just the number, no unit label.

Provide one value: measured solubility (mole fraction) of CCC(CO)(CO)C(=O)O
0.0523

====

- measurement_conditions: in cyclopentyl methyl ether, 318.15 K
measured_property: solubility (mole fraction)
Kindly provide the number alone.

Quick one: give measured solubility (mole fraction) for CCC(CO)(CO)C(=O)O
0.0266

====

- measurement_conditions: in toluene, 308.15 K
measured_property: solubility (mole fraction)

For CCC(CO)(CO)C(=O)O , write its solubility (mole fraction).
0.00073

====

- measurement_conditions: in gamma-butyrolactone, 318.15 K
measured_property: solubility (mole fraction)
Reply: number alone, nothing else.

For the compound CCC(CO)(CO)C(=O)O , give its reported solubility (mole fraction).
0.151

====

- measurement_conditions: in n-butyl acetate, 323.15 K
measured_property: solubility (mole fraction)

Give me measured solubility (mole fraction), please, for this compound: CCC(CO)(CO)C(=O)O
0.0317

====

- measurement_conditions: in toluene, 333.15 K
measured_property: solubility (mole fraction)
Please state the value as a number alone, without comment.

Look up and report measured solubility (mole fraction) for this entry: CCC(CO)(CO)C(=O)O
0.00099

====

- measurement_conditions: in cyclopentyl methyl ether, 298.15 K
measured_property: solubility (mole fraction)
Just the number.

Return solubility (mole fraction) (reported value) for this compound: CCC(CO)(CO)C(=O)O
0.0121

====

- measurement_conditions: in n-butyl acetate, 338.15 K
measured_property: solubility (mole fraction)
Write the value as a bare number.

Recall and state the measured solubility (mole fraction) for CCC(CO)(CO)C(=O)O .
0.0619

====

- measurement_conditions: in ethyl acetate, 323.15 K
measured_property: solubility (mole fraction)
Would you mind answering with just the numeric figure?

Answer with the recorded solubility (mole fraction) of CCC(CO)(CO)C(=O)O only.
0.0443

====

- measurement_conditions: in cyclopentyl methyl ether, 338.15 K
measured_property: solubility (mole fraction)
The response must contain the number and no unit.

Look up solubility (mole fraction) of CCC(CO)(CO)C(=O)O and report it.
0.054

====

- measurement_conditions: in MIBK, 345.15 K
measured_property: solubility (mole fraction)
Simply state the number, no unit and no words.

Using the record for CCC(CO)(CO)C(=O)O , state its measured solubility (mole fraction).
0.121

====

- measurement_conditions: in MIBK, 313.15 K
measured_property: solubility (mole fraction)
Enter a number only.

Recall and state the measured solubility (mole fraction) for CCC(CO)(CO)C(=O)O .
0.0433

====

- measurement_conditions: in MIBK, 323.15 K
measured_property: solubility (mole fraction)
Just the number, please, no unit after it.

Supply recorded solubility (mole fraction) for CCC(CO)(CO)C(=O)O here.
0.0575

====

- measurement_conditions: in ethyl acetate, 298.15 K
measured_property: solubility (mole fraction)
API note: the answer field is a bare number with no unit suffix.

Note solubility (mole fraction) for the compound shown: CCC(CO)(CO)C(=O)O
0.0111

====

- measurement_conditions: in cyclopentyl methyl ether, 323.15 K
measured_property: solubility (mole fraction)
Give a plain numeric answer without units written out.

Consider the molecule CCC(CO)(CO)C(=O)O and give its recorded solubility (mole fraction).
0.032
